Assay: in vitro
Settings: C57BL/6, mouse
PROPERTY: CC50

Record summary for `CCc1nn(C)c(C(=O)NCc2ccc(Oc3ccc(C)cc3)cc2)c1Cl` : reported CC50 = < 1 µM

---

System: C. elegans
Assay: microbe, parasite or virus in culture
Details: Caenorhabditis elegans, 0 h, read-out: Percentage of motility inhibition 0 h, Table S2, C. elegans SS assay, 110 μM, 0 h, averages of 4 data points
PROPERTY: inhibition at 110 µM (%)
Answers are plain numbers, in %.

Example entries and their recorded answers appear below.
- COMPOUND: "COc1cc(NCc2ccc3nc(N)nc(N)c3c2C)cc(OC)c1OC [Trimetrexate]"
  inhibition at 110 µM [%]: 15
- COMPOUND: "O=c1[nH]c(=O)n([C@H]2C[C@H](O)[C@@H](CO)O2)cc1I"
  inhibition at 110 µM [%]: 38
- COMPOUND: "Cc1nc(C)c(Cl)c(O)c1Cl"
  inhibition at 110 µM [%]: 7
- COMPOUND: "Nc1nc2c(ncn2CCC(CO)CO)c(=O)[nH]1"
  inhibition at 110 µM [%]: 22
- COMPOUND: "COc1cc2c(cc1Cc1cccc(Cl)c1F)c(=O)c(C(=O)O)cn2[C@H](CO)C(C)C"
  inhibition at 110 µM [%]: 23

Kindly give each listed record's inhibition at 110 µM.
1. CN1CCc2cc3c(cc2[C@H]1[C@@H]1OC(=O)c2c1ccc1c2OCO1)OCO3
2. Nc1nc(O)c2ncn(COC(CO)CO)c2n1
3. COc1ccc(-c2cc(=O)c3c(OC)c(OC)c(OC)c(OC)c3o2)cc1OC
4. C[C@@H]1CC[C@@]2(NC1)O[C@H]1C[C@H]3[C@@H]4CC=C5C[C@@H](O[C@@H]6O[C@H](CO)[C@H](O)[C@H](O[C@@H]7O[C@H](CO)[C@@H](O)[C@H](O)[C@H]7O)[C@H]6O[C@@H]6O[C@@H](C)[C@H](O)[C@@H](O)[C@H]6O)CC[C@]5(C)[C@H]4CC[C@]3(C)[C@H]1[C@@H]2C

Result:
0
22
0
0

---

I'd be grateful if you could share measured inhibition at 110 µM for these entries.
System: C. elegans
Assay: microbe, parasite or virus in culture
Conditions: Caenorhabditis elegans, 24 h, read-out: Percentage of motility inhibition 24 h, Table S2, C. elegans SS assay, 110 μM, 24 h, averages of 4 data points
Answers are plain numbers, in %.

Example entries and their recorded answers appear below.
- COMPOUND: "C[C@@]12CC[C@@H]3[C@@](CC[C@H]4[C@@]3(C)CCC[C@@]4(C)C(=O)O)(CC1=O)C2"
  PROPERTY: "inhibition at 110 µM"
  MEASURED: 2
- COMPOUND: "CC(=O)c1ccc[nH]1"
  PROPERTY: "inhibition at 110 µM"
  MEASURED: 18
- COMPOUND: "CC(C)=CCC[C@](C)(O)[C@H]1CC[C@]2(C)[C@@H]1[C@H](O)C[C@@H]1[C@@]3(C)CC[C@H](O)C(C)(C)[C@@H]3[C@@H](O[C@@H]3O[C@H](CO)[C@@H](O)[C@H](O)[C@H]3O[C@@H]3O[C@H](CO)[C@@H](O)[C@H](O)[C@H]3O)C[C@]12C [Ginsenoside Rf]"
  PROPERTY: "inhibition at 110 µM"
  MEASURED: 0

Kindly give each listed record's inhibition at 110 µM.
1. c1ccc2c(Cc3c[nH]c4ccccc34)c[nH]c2c1
2. CO[C@H]1/C=C/O[C@@]2(C)Oc3c(C)c(O)c4c(c3C2=O)C2=NC3(CCN(CC(C)C)CC3)NC2=C(NC(=O)/C(C)=C\C=C\[C@H](C)[C@H](O)[C@@H](C)[C@@H](O)[C@@H](C)[C@H](OC(C)=O)[C@@H]1C)C4=O

Result:
[7, 2]

Kindly give each listed record's inhibition at 110 µM.
1. O=C(O)CCC(=O)O
2. C=C1C(=O)[C@@]23[C@@H]4OC5O[C@@]2(O)[C@@H](O)[C@@H]2C(C)(C)CC[C@@H](O)[C@]52[C@@H]3CC[C@@H]14

Result:
1. 15
2. 0

---

System: C. elegans
Assay: microbe, parasite or virus in culture
Conditions: Caenorhabditis elegans, 0 h, read-out: Percentage of motility inhibition 0 h, Table S2, C. elegans SS assay, 110 μM, 0 h, averages of 4 data points
Kindly return Criterion met if reported inhibition at 110 µM is no lower than 20%; return Criterion not met if it is lower.

Query: Textbook exercise: given the entry C[C@@H]1O[C@@H](O[C@H]2[C@H](O)[C@@H](O)[C@H](OC[C@H]3O[C@@H](OC(=O)[C@]45CCC(C)(C)C[C@H]4C4=CC[C@@H]6[C@@]7(C)C[C@@H](O)[C@H](O)[C@@](C)(CO)[C@@H]7[C@H](O)C[C@@]6(C)[C@]4(C)CC5)[C@H](O)[C@@H](O)[C@@H]3O)O[C@@H]2CO)[C@H](O)[C@H](O)[C@H]1O [Asiaticoside B] , state whether its inhibition at 110 µM is greater than or equal to 20%.
Result: Criterion not met

Query: Textbook exercise: given the entry `CCN1CCN(C(=O)N[C@@H](C(=O)N[C@@H]2C(=O)N3C(C(=O)O)=C(CSc4nnnn4C)CS[C@H]23)c2ccc(O)cc2)C(=O)C1=O` , state whether its inhibition at 110 µM is greater than or equal to 20%.
Result: Criterion met

Query: Textbook exercise: given the entry `N[C@@H](Cc1ccccc1)C(=O)O` , state whether its inhibition at 110 µM is greater than or equal to 20%.
Result: Criterion met

---

Test system: C. elegans
Settings: Table S2, C. elegans SS assay, 110 μM, 0 h, averages of 4 data points
I'd be grateful if you could share measured Percentage of motility inhibition 0 h for these entries.
Numbers only, in %.

Example entries and their recorded answers appear below.
- MOLECULE: "COc1ccc(/C=C/C(=O)O[C@@H]2[C@H](O[C@@H]3O[C@@H](C)[C@H](O)[C@@H](O)[C@H]3O)[C@@H](O[C@@H]3O[C@@H](C)[C@H](O[C@@H]4OC[C@@H](O[C@@H]5O[C@H](CO)[C@H](O)[C@H](O)[C@H]5O)[C@H](O)[C@H]4O)[C@@H](O)[C@H]3O)[C@H](OC(=O)[C@]34CCC(C)(C)C[C@H]3C3=CC[C@@H]5[C@@]6(C)C[C@H](O)[C@H](O[C@@H]7O[C@H](CO)[C@@H](O)[C@H](O)[C@H]7O)[C@@](C)(C(=O)O)[C@@H]6CC[C@@]5(C)[C@]3(CO)CC4)O[C@@H]2C)cc1 [Onjisaponin B]"
  SUBJECT_OF_TEST: "C. elegans"
  MEASURED: 30
- MOLECULE: "CC1=C(/C=C/C(C)=C/C=C/C(C)=C/C=C/C=C(C)/C=C/C=C(\\C)C=O)C(C)(C)CCC1 [β-Apo-8'-carotenal]"
  SUBJECT_OF_TEST: "C. elegans"
  MEASURED: 12
- MOLECULE: "O=C(/C=C/c1ccc(O)cc1)OC[C@H]1O[C@@H](Oc2c(-c3ccc(O)cc3)oc3cc(O)cc(O)c3c2=O)[C@H](O)[C@@H](O)[C@@H]1O [Tribuloside]"
  SUBJECT_OF_TEST: "C. elegans"
  MEASURED: 13
- MOLECULE: "O=c1c(O[C@@H]2O[C@H](CO)[C@@H](O)[C@H](O)[C@H]2O[C@@H]2OC[C@@H](O)[C@H](O)[C@H]2O)c(-c2ccc(O)cc2)oc2cc(O)cc(O)c12 [Leucoside]"
  SUBJECT_OF_TEST: "C. elegans"
  MEASURED: 9

Kindly give each listed record's Percentage of motility inhibition 0 h.
1. CC[C@H]1OC(=O)[C@H](C)[C@@H](O[C@H]2C[C@@](C)(OC)[C@@H](O)[C@H](C)O2)[C@H](C)[C@@H](O[C@@H]2O[C@H](C)C[C@H](N(C)C)[C@H]2O)[C@](C)(O)C[C@@H](C)CN[C@H](C)[C@@H](O)[C@]1(C)O [Azathramycin]
2. COc1ccc(-c2cc(=O)c3c(O)cc(O[C@@H]4O[C@H](CO[C@@H]5O[C@@H](C)[C@H](O)[C@@H](O)[C@H]5O)[C@@H](O)[C@H](O)[C@H]4O)cc3o2)cc1 [Linarin]
3. O=C(O[C@@H]1Cc2c(O)cc(O)cc2O[C@@H]1c1cc(O)c(O)c(O)c1)c1cc(O)c(O)c(O)c1 [(‐)‐Epigalloca techin Gallate]
4. C[C@H](CO[C@@H]1O[C@H](CO)[C@@H](O)[C@H](O)[C@H]1O)[C@H]1CC[C@@]2(CC[C@]3(C)[C@H](CC[C@@H]4[C@@]5(C)CC[C@H](O[C@@H]6O[C@H](CO)[C@@H](O)[C@H](O)[C@H]6O[C@@H]6O[C@H](CO)[C@@H](O)[C@H](O)[C@H]6O)[C@@](C)(CO)[C@@H]5CC[C@]43C)[C@H]2O)CO1 [Hosenkoside B]

Result:
1. 11
2. 15
3. 9
4. 7

Kindly give each listed record's Percentage of motility inhibition 0 h.
1. COc1ccc2c3c1O[C@H]1C[C@@H](O)C=C[C@@]31CC[N+](C)([O-])C2 (stereo partly drawn) [Galanthamine N‐Oxide]
2. CN(C)[C@@H]1C(=O)C(C(N)=O)=C(O)[C@@]2(O)C(=O)C3=C(O)c4c(O)ccc(Cl)c4[C@@](C)(O)[C@H]3C[C@@H]12.Cl [Chlortetracycline (hydrochloride)]

Result:
1: 3; 2: 24

Kindly give each listed record's Percentage of motility inhibition 0 h.
1. COc1ccc(-c2cc(=O)c3c(O)cc(O[C@@H]4O[C@H](CO)[C@@H](O)[C@H](O)[C@H]4O)cc3o2)cc1 [Tilianin]
2. CCC1=N[C@H]2C[C@@]3(C(=O)N(OC)c4ccccc43)[C@H]3CC1[C@@H]2CO3 [Humantenmine]

Result:
[13, 8]

Kindly give each listed record's Percentage of motility inhibition 0 h.
1. CCOc1ccc2ccccc2c1C(=O)N[C@@H]1C(=O)N2[C@@H]1SC(C)(C)[C@@H]2C(=O)[O-].O.[Na+] [Nafcillin (sodium monohydrate)]
2. COc1cc(OC)c2c(=O)cc(-c3ccccc3)oc2c1 [5,7‐Dimethoxyflavone]
3. CC[C@@]1(O)C(=O)OCc2c1cc1n(c2=O)Cc2cc3c(OC)cccc3nc2-1 [9‐Methoxycamptothecin]
4. COc1cc(/C=C/C(=O)OCC[N+](C)(C)C)cc(OC)c1O.N#C[S-] [Sinapine (thiocyanate)]
5. CN1CCC=C(C(=O)O)C1.Cl [Arecaidine (hydrochloride)]
6. N#C[C@@H](O[C@@H]1O[C@H](CO[C@@H]2O[C@H](CO)[C@@H](O)[C@H](O)[C@H]2O)[C@@H](O)[C@H](O)[C@H]1O)c1ccccc1 [Neoamygdalin]

Result:
[12, 37, 22, 0, 7, 0]

Kindly give each listed record's Percentage of motility inhibition 0 h.
1. NC(=O)c1cc([N+](=O)[O-])cc([N+](=O)[O-])c1 [Nitromide]
2. OCC1=C[C@@H](O)[C@]2(O[C@@H]3O[C@H](CO)[C@@H](O)[C@H](O)[C@H]3O)C=CO[C@@H](O[C@@H]3O[C@H](CO)[C@@H](O)[C@H](O)[C@H]3O)[C@H]12 [Melittoside]

Result:
25
0

For NC(=O)[C@@H]1CC[C@@H]2CN1C(=O)N2OS(=O)(=O)[O-].[Na+] [Avibactam (sodium hydrate)] on C. elegans, measured Percentage of motility inhibition 0 h was 37

Source listed as paper PMC11855827.
